target: SSTR2 (Homo sapiens); assay: SSTR binding affinity by radioligand binding competition assay ([125I]-Tyr11-Somatostatin, membrane extracts); details: read-out: SSTR2 Ki
Peptide text beside a SMILES is read from it.
measure: Ki

CC(=O)NCCCC[C@@H]1C(=O)N[C@@H](Cc2ccc(O)cc2)C(=O)N[C@H](Cc2c[nH]c3ccccc23)C(=O)N[C@@H](CCCCN)C(=O)N[C@@H](C(C)C)C(=O)N[C@@H](Cc2ccccc2)C(=O)N1C [RB-0002593] (HELM PEPTIDE1{F.[CN([C@H](CCCCN[*:3])C(=O)[*:2])[*:1]].Y.[dW].K.V}|PEPTIDE2{[ac]}$PEPTIDE1,PEPTIDE2,2:R3-1:R2|PEPTIDE1,PEPTIDE1,1:R1-6:R2$$$V2.0) :: 3.33 to 10 nM

Can you share its Ki? I mean this compound: CC(C)[C@@H]1NC(=O)[C@H](CCCCN)NC(=O)[C@@H](Cc2ccc(NC(N)=O)cc2)NC(=O)[C@H](Cc2ccc(O)cc2)NC(=O)[C@H](C)N(C)C(=O)[C@H](Cc2ccccc2)NC1=O [RB-0002328] (HELM PEPTIDE1{F.[meA].Y.[NC(=O)Nc1ccc(C[C@@H](N[*:1])C(=O)[*:2])cc1].K.V}$PEPTIDE1,PEPTIDE1,1:R1-6:R2$$$V2.0)
1 to 3.33 nM

Then what about the compound `C[C@H](c1ccccc1)[C@@H]1NC(=O)[C@H]([C@@H](C)O)NC(=O)[C@H](CCCCN)NC(=O)[C@@H]([C@@H](C)c2c[nH]c3ccccc23)NC(=O)[C@H](Cc2ccncc2)NC(=O)[C@H](CCSCC(=O)NCCCCCCNC(=O)CN2CCN(CC(=O)O)CCN(CC(=O)O)CCN(CC(=O)O)CC2)N(C)C1=O` ?
1 to 3.33 nM

###

Measured pKi by item
target: SSTR2 (Homo sapiens); experiment: SSTR binding affinity by radioligand binding competition assay ([125I]-Tyr11-Somatostatin, membrane extracts); conditions: radioligand competition, [125I]-Tyr11-Somatostatin 0.1 nM, membrane extracts; Ki from IC50 by Cheng Prusoff; read-out: SSTR2 Ki
pKi: −log10 of the molar value. Numbered stars: 1 amine (or outer) side, 2 acyl side, 3 side chain; on linkers, the order of the positions; unused ones are H or OH. Square brackets hold non-standard residues; d marks the D form. Side chains are listed from the residue outwards. Peptide text beside a SMILES is read from it. * marks the point of attachment. DOTA(Lu) = O=C1CN2CCN3CCN(CC(=O)*)CCN(CC2)CC(=O)[O][Lu]([O]1)[O]C(=O)C3; Ala(piperidin-4-yl) = O=C([C@H](CC1CCN([*:3])CC1)N[*:1])[*:2]; dTrp(βS-Me) = C[C@@H](c1c[nH]c2ccccc12)[C@@H](N)C(=O)O; Ethylenediamine = C(CN[*:2])N[*:1]; Hyp = O=C(O)[C@@H]1C[C@@H](O)CN1; CO = O=C([*:1])[*:2]

C[C@@H](O)[C@@H]1NC(=O)[C@H](CCCCN)NC(=O)[C@@H](Cc2c[nH]c3ccccc23)NC(=O)[C@H](Cc2ccc(O)cc2)NC(=O)[C@H](CCCCCNC(=O)CN2CCN3CCN4CCN(CC2)CC(=O)[O][Lu]([O]C(=O)C3)[O]C(=O)C4)N(C)C(=O)[C@H](Cc2ccccc2)NC1=O :: > 9.00

Okay, now this molecule:
# pKi lookup, item C[C@@H](O)[C@@H]1NC(=O)[C@H](CC2CCNCC2)NC(=O)[C@@H]([C@@H](C)c2c[nH]c3ccccc23)NC(=O)[C@H](Cc2ccc(O)cc2)NC(=O)[C@@H]2C[C@@H](OC(=O)NCCNC(=O)CN3CCN4CCN5CCN(CC3)CC(=O)[O][Lu]([O]C(=O)C4)[O]C(=O)C5)CN2C(=O)[C@H](Cc2ccccc2)NC1=O [RB-0006395] (cyclo(F[Hyp]([CO-Ethylenediamine-DOTA(Lu)])Y[dTrp(βS-Me)][Ala(piperidin-4-yl)]T))
> 9.00

###

biological target: SSTR2 (Homo sapiens, UniProt P30874); assay: SSTR binding affinity by radioligand binding competition assay ([125I]-Tyr11-Somatostatin, membrane extracts); settings: radioligand competition, [125I]-Tyr11-Somatostatin 0.1 nM, membrane extracts; Ki from IC50 by Cheng Prusoff; read-out: SSTR2 Ki
Sequence (P30874 whole entry): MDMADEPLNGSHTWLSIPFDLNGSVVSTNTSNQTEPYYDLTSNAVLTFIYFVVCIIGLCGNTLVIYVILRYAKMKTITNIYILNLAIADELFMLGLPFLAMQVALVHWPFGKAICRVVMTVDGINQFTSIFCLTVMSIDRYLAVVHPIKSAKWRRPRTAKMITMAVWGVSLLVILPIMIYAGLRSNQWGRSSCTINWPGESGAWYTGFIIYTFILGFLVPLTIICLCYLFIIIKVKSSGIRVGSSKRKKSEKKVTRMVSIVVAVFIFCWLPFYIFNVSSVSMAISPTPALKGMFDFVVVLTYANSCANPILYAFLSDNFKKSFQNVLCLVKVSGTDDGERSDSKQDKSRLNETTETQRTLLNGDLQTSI
pKi: −log10 of the molar value. Square brackets hold non-standard residues; d marks the D form. Peptide text beside a SMILES is read from it. * marks the point of attachment. DOTA(Lu)NH(CH2)6NHCOCH2 = O=C(CN1CCN2CCN3CCN(CC1)CC(=O)[O][Lu]([O]C(=O)C2)[O]C(=O)C3)NCCCCCCNC(=O)C*; Gly(piperidin-4-yl) = N[C@H](C(=O)O)C1CCNCC1; Gly(cPent) = N[C@H](C(=O)O)C1CCCC1; NMehCys = CN[C@@H](CCS)C(=O)O
The entries below are paired with their reported pKi.

CN1C(=O)[C@H](Cc2ccccc2)NC(=O)[C@H](C2CCCC2)NC(=O)[C@H](CCCCN)NC(=O)[C@@H](Cc2c[nH]c3ccccc23)NC(=O)[C@H](Cc2ccc(O)cc2)NC(=O)[C@@H]1CCSCC(=O)NCCCCCCNC(=O)CN1CCN2CCN3CCN(CC1)CC(=O)[O][Lu]([O]C(=O)C2)[O]C(=O)C3 [RB-0004623] (cyclo(F[NMehCys](DOTA(Lu)NH(CH2)6NHCOCH2)Y[dW]K[Gly(cPent)])) :: > 9.00
C[C@@H](O)[C@@H]1NC(=O)[C@H](CC2CCNCC2)NC(=O)[C@@H]([C@@H](C)c2c[nH]c3ccccc23)NC(=O)[C@H](Cc2ccc(O)cc2)NC(=O)[C@H](CCCCNC(=O)CCC2C(=O)[O][Ga]3[O]C(=O)CN4CCN(CCN2CC4)CC(=O)[O]3)N(C)C(=O)[C@H](Cc2ccccc2)NC1=O (mixture of isomers) [RB-0006285] :: 8.48 to 9.00

Now consider the entry below.
Look up pKi: C[C@@H](O)[C@@H]1NC(=O)[C@H](C2CCNCC2)NC(=O)[C@@H](Cc2c[nH]c3ccccc23)NC(=O)[C@H](Cc2ccc(O)cc2)NC(=O)[C@H](CCSCC(=O)NCCCCCCNC(=O)CN2CCN3CCN4CCN(CC2)CC(=O)[O][Lu]([O]C(=O)C3)[O]C(=O)C4)N(C)C(=O)[C@H](Cc2ccccc2)NC1=O [RB-0004868] (cyclo(F[NMehCys](DOTA(Lu)NH(CH2)6NHCOCH2)Y[dW][Gly(piperidin-4-yl)]T))
8.00 to 8.48

###

target: SSTR2 (Homo sapiens); test: SSTR binding affinity by radioligand binding competition assay ([125I]-Tyr11-Somatostatin, membrane extracts); details: radioligand competition, [125I]-Tyr11-Somatostatin 0.1 nM, membrane extracts; Ki from IC50 by Cheng Prusoff; read-out: SSTR2 Ki
pKi: −log10 of the molar value. Numbered stars: 1 amine (or outer) side, 2 acyl side, 3 side chain; on linkers, the order of the positions; unused ones are H or OH. Square brackets hold non-standard residues; d marks the D form. Peptide text beside a SMILES is read from it. * marks the point of attachment. DOTA(Lu)NH(CH2)6NHCOCH2 = O=C(CN1CCN2CCN3CCN(CC1)CC(=O)[O][Lu]([O]C(=O)C2)[O]C(=O)C3)NCCCCCCNC(=O)C*; DOTA(Lu) = O=C1CN2CCN3CCN(CC(=O)*)CCN(CC2)CC(=O)[O][Lu]([O]1)[O]C(=O)C3; Ala(piperidin-4-yl) = O=C([C@H](CC1CCN([*:3])CC1)N[*:1])[*:2]; dTrp(βS-Me) = C[C@@H](c1c[nH]c2ccccc12)[C@@H](N)C(=O)O; dNMeW = CN[C@H](Cc1c[nH]c2ccccc12)C(=O)O; NMehCys = CN[C@@H](CCS)C(=O)O; NMeK = CN[C@@H](CCCCN)C(=O)O
measure: pKi

Below, each entry is followed by its recorded pKi result.
C[C@@H](O)[C@@H]1NC(=O)[C@H](CCCCN)NC(=O)[C@@H](Cc2c[nH]c3ccccc23)NC(=O)[C@H](Cc2ccc(O)cc2)NC(=O)[C@H](CCSCC(=O)NCCCC[C@@H](NC(=O)CN2CCN3CCN4CCN(CC2)CC(=O)[O][Lu]([O]C(=O)C3)[O]C(=O)C4)C(=O)O)N(C)C(=O)[C@H](Cc2ccccc2)NC1=O :: 8.48 to 9.00
C[C@@H](O)[C@@H]1NC(=O)[C@H](CC2CCNCC2)NC(=O)[C@@H]([C@@H](C)c2c[nH]c3ccccc23)NC(=O)[C@H](Cc2ccc(O)cc2)NC(=O)[C@H](CCCCNC(=O)CN2CCN3CCN4CCN(CC2)CC(=O)[O][Lu]([O]C(=O)C3)[O]C(=O)C4)N(C)C(=O)[C@H](CO)NC1=O [RB-0006166] (cyclo([NMeK](DOTA(Lu))Y[dTrp(βS-Me)][Ala(piperidin-4-yl)]TS)) :: 7.00 to 7.48

Could you now consider this next molecule?
So what's the measured pKi for this one? C[C@@H](O)[C@@H]1NC(=O)[C@H](CCCCN)N(C)C(=O)[C@@H](Cc2c[nH]c3ccccc23)N(C)C(=O)[C@H](Cc2ccc(O)cc2)NC(=O)[C@H](CCSCC(=O)NCCCCCCNC(=O)CN2CCN3CCN4CCN(CC2)CC(=O)[O][Lu]([O]C(=O)C3)[O]C(=O)C4)N(C)C(=O)[C@H](Cc2ccccc2)NC1=O [RB-0003455] (cyclo(F[NMehCys](DOTA(Lu)NH(CH2)6NHCOCH2)Y[dNMeW][NMeK]T))
> 9.00
